From: paper PMC3235172

target: NlugOBP1 (Nilaparvata lugens); assay: Competitive fluorescence binding assay (1-NPN probe) with recombinant NlugOBP1
Sequence (B6E9U1 entry or part of it): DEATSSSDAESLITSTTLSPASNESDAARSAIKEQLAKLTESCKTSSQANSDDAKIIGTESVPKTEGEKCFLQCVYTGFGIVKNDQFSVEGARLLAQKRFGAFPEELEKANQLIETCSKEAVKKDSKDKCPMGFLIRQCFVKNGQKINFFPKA
PROPERTY MEASURED: Kd

Field request: Kd | item: c1ccc(Nc2cccc3ccccc23)cc1 [Ligand 1-NPN, N-phenyl-1-naphthyl-amine, reference compound] 9.7 µM

* * *

molecular target: NlugOBP2 (Nilaparvata lugens, UniProt B6E9U2); assay: Competitive fluorescence binding assay (1-NPN probe) with recombinant NlugOBP2
Sequence (B6E9U2 entry or part of it): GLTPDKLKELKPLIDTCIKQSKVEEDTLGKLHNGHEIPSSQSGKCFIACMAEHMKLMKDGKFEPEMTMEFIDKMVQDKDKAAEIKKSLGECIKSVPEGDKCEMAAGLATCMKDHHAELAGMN
PROPERTY MEASURED: pKd
// pKd is dimensionless: -log10 of concentration (M)

Give NlugOBP2 (Nilaparvata lugens, UniProt B6E9U2) pKd for c1ccc(Nc2cccc3ccccc23)cc1 [Ligand 1-NPN, N-phenyl-1-naphthyl-amine, reference compound] 4.99

* * *

biological target: NlugOBP3 (Nilaparvata lugens, UniProt B6E9U3); test: Competitive fluorescence binding assay (1-NPN probe) with recombinant NlugOBP3
Sequence (B6E9U3 entry or part of it): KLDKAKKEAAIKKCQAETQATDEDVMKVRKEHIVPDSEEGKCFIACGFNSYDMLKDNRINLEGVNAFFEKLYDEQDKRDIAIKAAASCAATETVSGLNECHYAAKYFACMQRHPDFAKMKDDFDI
IC50 values for the compounds below.
Respond numerically; units are µM and should not be typed.

CCOC(=O)c1ccccc1 [Ligand 23, Ethyl benzoate] | 39
CCC/C=C/C=O [Ligand 13, (E)-2-Hexenal] | 42
CC/C=C/CCO [Ligand 4, (E)-3-Hexen-1-ol] | 29.6

From here, focus on the item given below.
Give NlugOBP3 (Nilaparvata lugens, UniProt B6E9U3) IC50 for O=Cc1ccccc1 41

* * *

target: NlugOBP3 (Nilaparvata lugens, UniProt B6E9U3); experiment: Competitive fluorescence binding assay (1-NPN probe) with recombinant NlugOBP3
IC50 values for the compounds below.
Respond numerically; units are µM and should not be typed.

Here is how some compounds turned out for IC50.
COC(=O)c1ccccc1O [Ligand 25, Methyl salicylate] | 44.8
CC(C)c1ccccc1 | 37.2

Give NlugOBP3 (Nilaparvata lugens, UniProt B6E9U3) IC50 for CCCCCCCCCCCC(=O)O 13.9

Give NlugOBP3 (Nilaparvata lugens, UniProt B6E9U3) IC50 for CC1=CC[C@@H]2C[C@H]1C2(C)C [Ligand 34, (+)-α-Pinene] 16.1

Give NlugOBP3 (Nilaparvata lugens, UniProt B6E9U3) IC50 for CC(C)=CCC/C(C)=C/CO 32.6

Give NlugOBP3 (Nilaparvata lugens, UniProt B6E9U3) IC50 for C=C1CC/C=C(\C)CC[C@@H]2[C@@H]1CC2(C)C 37.4

Give NlugOBP3 (Nilaparvata lugens, UniProt B6E9U3) IC50 for CC(=O)/C=C/C1=C(C)CCCC1(C)C 8.5

Give NlugOBP3 (Nilaparvata lugens, UniProt B6E9U3) IC50 for C[C@@H]1CC[C@H]2C(C)(C)[C@H]3C[C@@]12CC[C@@]3(C)O 19.7

Give NlugOBP3 (Nilaparvata lugens, UniProt B6E9U3) IC50 for COC(C)(C)CCC[C@H](C)C/C=C/C(C)=C/C(=O)OC(C)C (racemic) 14.7

* * *

biological target: NlugOBP1 (Nilaparvata lugens); assay: Competitive fluorescence binding assay (1-NPN probe) with recombinant NlugOBP1; conditions: displacement of 1-NPN; protein and 1-NPN at 2 µM; 50 mM Tris-HCl pH 7.4; read-out: OBP1 IC50
PROPERTY MEASURED: pIC50
// pIC50 is dimensionless: -log10 of concentration (M)

CC(C)(C)c1cccc(C(C)(C)C)c1O [Ligand 41, 2,6-Di-tert-butylphenol] | 4.65

Field request: pIC50 | item: CC(C)=CCC/C(C)=C/CC/C(C)=C/CO [Ligand 5, Farnesol] 4.64

Field request: pIC50 | item: C=C(C)[C@H]1CC=C(C)CC1 [Ligand 35, (R)-(+)-Limonene] 4.49

Field request: pIC50 | item: CC(=O)c1ccccc1 [Ligand 17, Acetophenone] 4.46

Field request: pIC50 | item: CCCCCCCCCCCCCCCC(=O)O [Ligand 27, Palmitic acid] 4.59

Field request: pIC50 | item: CC(=O)OCCC(C)C [Ligand 19, Isoamyl acetate] 4.45

Field request: pIC50 | item: CCCCCCCCCCCCCC(C)=O [Ligand 16, 2-Pentadecanone] 4.53

Field request: pIC50 | item: C=CC(C)(O)CC/C=C(\C)CCC=C(C)C (racemic) [Ligand 3, (+/-)Nerolidol] 4.55

* * *

target: NlugOBP1 (Nilaparvata lugens); assay: Competitive fluorescence binding assay (1-NPN probe) with recombinant NlugOBP1
pKi: −log10 of the molar value.
PROPERTY MEASURED: pKi

Here is how some compounds turned out for pKi.
O=Cc1ccccc1 | < 4.30
CC1CCC(C(C)C)C(O)C1 (centres unmarked) | < 4.30
C[C@@H]1CC[C@H]2C(C)(C)[C@H]3C[C@@]12CC[C@@]3(C)O | 4.59
C=CC(C)(O)CCC=C(C)C (centres unmarked) | 4.46
COC(C)(C)CCC[C@H](C)C/C=C/C(C)=C/C(=O)OC(C)C (racemic) | 4.78
CCOC(=O)c1ccccc1 [Ligand 23, Ethyl benzoate] | < 4.30
CC(C)=CCC/C(C)=C/CO | < 4.30
CC/C=C/CCO [Ligand 4, (E)-3-Hexen-1-ol] | < 4.30

Field request: pKi | item: COC(=O)c1ccccc1O [Ligand 25, Methyl salicylate] < 4.30

Field request: pKi | item: CC(C)c1ccccc1 < 4.30

Field request: pKi | item: COC(=O)c1ccccc1 [Ligand 24, Methyl benzoate] < 4.30

* * *

target: NlugOBP2 (Nilaparvata lugens, UniProt B6E9U2); experiment: Competitive fluorescence binding assay (1-NPN probe) with recombinant NlugOBP2; conditions: displacement of 1-NPN; protein and 1-NPN at 2 µM; 50 mM Tris-HCl pH 7.4; read-out: OBP2 IC50
pIC50: −log10 of the molar value.
pIC50 values for the compounds below.

Here is how some compounds turned out for pIC50.
CCCCCCCCCCCCCC | < 4.30
CCCCCCCCCCCCCCCCCC | < 4.30
CCCCCOC(C)=O [Ligand 18, Amyl acetate] | < 4.30

Field request: pIC50 | item: CCC/C=C/COC(C)=O [Ligand 20, (E)-2-Hexenyl acetate] 4.53

Field request: pIC50 | item: CCCCCCCCCCCCCCCCCCCC < 4.30

Field request: pIC50 | item: CCCCCCCCCCCC=O < 4.30

Field request: pIC50 | item: C=C(C)[C@H]1CC=C(C)CC1 [Ligand 35, (R)-(+)-Limonene] < 4.30

Field request: pIC50 | item: CC/C=C\CCOC(C)=O [Ligand 22, (Z)-3-Hexenyl acetate] 4.42

* * *

biological target: NlugOBP3 (Nilaparvata lugens, UniProt B6E9U3); experiment: Competitive fluorescence binding assay (1-NPN probe) with recombinant NlugOBP3; conditions: calculated from IC50; protein and 1-NPN at 2 µM; pH 7.4; read-out: OBP3 Ki
PROPERTY MEASURED: Ki

Here is how some molecules turned out for Ki.
CCCCCOC(C)=O [Ligand 18, Amyl acetate] | > 50 µM
CC12CCC(CC1)C(C)(C)O2 | > 50 µM
CCCCCCCCCCCCC | > 50 µM
CCCCCCCCCCCCCCCCC | > 50 µM
CCCCCCCCCCCCCCCCCCCC | > 50 µM
CCCCCCCCCCCCCC | > 50 µM

Field request: Ki | item: C=C(C)[C@H]1CC=C(C)CC1 [Ligand 35, (R)-(+)-Limonene] 23.6 µM

Field request: Ki | item: CCCCCC(C)O (stereo not shown) > 50 µM

Field request: Ki | item: CC(=O)OCCC(C)C [Ligand 19, Isoamyl acetate] > 50 µM

Field request: Ki | item: CCCCCCCCCCCCCCCCCC > 50 µM

* * *

molecular target: NlugOBP3 (Nilaparvata lugens, UniProt B6E9U3); test: Competitive fluorescence binding assay (1-NPN probe) with recombinant NlugOBP3; details: displacement of 1-NPN; protein and 1-NPN at 2 µM; 50 mM Tris-HCl pH 7.4; read-out: OBP3 IC50
pIC50: −log10 of the molar value.
pIC50 values for the molecules below.

CCCCCC(C)O (stereo not shown) | < 4.30
CCCCCCCCCCCCCCCCC | < 4.30
CCCCCCCCCCCCCC(C)=O | 4.87
CCCCCOC(C)=O [Ligand 18, Amyl acetate] | < 4.30
CCCCCCCCCCCCCC | < 4.30

Field request: pIC50 | item: CCCCCCCCCCCCCCCCCC < 4.30

Field request: pIC50 | item: CC(=O)OCCC(C)C [Ligand 19, Isoamyl acetate] < 4.30

Field request: pIC50 | item: C=C(C)[C@H]1CC=C(C)CC1 [Ligand 35, (R)-(+)-Limonene] 4.48

Field request: pIC50 | item: CCCCCCCCCCCCC < 4.30

* * *

Molecular target: NlugOBP3 (Nilaparvata lugens, UniProt B6E9U3)
Test: Competitive fluorescence binding assay (1-NPN probe) with recombinant NlugOBP3
Protocol: The excitation wavelength was 337 nm and the emission spectrum was recorded between 370 and 460 nm by a fluorescence spectrometer (Hitachi F-7000 Fluorescence Spectrophotometer, Japan) with a 1 cm light path quartz cuvette and 10 nm slits for both excitation and emission.
PROPERTY MEASURED: Ki

CC1CCC(C(C)C)C(O)C1 (stereo not drawn) | > 50 µM
COC(=O)c1ccccc1 [Ligand 24, Methyl benzoate] | > 50 µM

From here, focus on the item given below.
Field request: Ki | item: C=CC(C)(O)CCC=C(C)C (stereo not drawn) > 50 µM
